# Test system: K562 CRISPRi cells
# assayOverview: Perturb-seq pooled growth measurement (sgRNA counts, growth phenotype γ, relative activity)
# Assay type: cell-based, human
# conditionParameters: pooled growth phenotype γ of the Perturb-seq sgRNA, day 10, K562 CRISPRi cells
Would you mind telling me the reported gamma_day10 of each entry?
Answer with a bare number; do not write a unit.

Quick one: gamma_day10 for CAD_ + _27440280.23-P1P2_03 (guide GGCTGGTGAGAAGCCGGGCG; listed as DNA, chemistry not fully specified) ?
−0.6267

Can you check HSPE1_ + _198365089.23-P1P2_00 (guide GGAGACTCGCAGTCCGGCCC; listed as DNA, chemistry not fully specified) next?
−0.5672

Same question for HSPA5_ + _128003624.23-P1P2_01 (guide GAACCGAGTAGGCGACGGTG; listed as DNA, chemistry not fully specified) please.
−0.3748

Reference source for all entries: patent US20220259593A1
